- TESTED_TARGET: X-box-binding protein 1 (Homo sapiens) (UniProt P17861)
- Sequence (P17861 whole entry, looked up): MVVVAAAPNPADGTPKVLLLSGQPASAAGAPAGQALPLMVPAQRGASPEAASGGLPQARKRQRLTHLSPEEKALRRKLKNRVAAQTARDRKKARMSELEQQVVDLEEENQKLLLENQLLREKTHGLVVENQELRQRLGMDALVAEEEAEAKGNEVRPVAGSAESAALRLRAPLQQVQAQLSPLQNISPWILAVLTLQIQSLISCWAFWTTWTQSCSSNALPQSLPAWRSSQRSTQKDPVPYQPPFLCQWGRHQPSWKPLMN
- TEST: ATG_Xbp1_CIS: Attagene CIS-FACTORIAL HepG2 Assay for human X-box Binding Protein 1 (XBP1) (AID 2282972)
- EXPERIMENTAL_PARAMETERS: HepG2 XBP1 cis-element reporter, Attagene multiplex; actives raise or lower the signal
The source made the active and inactive calls. The calls were made as follows: active = hit-call score of the fitted dose curve at least 0.9, where 1 is the maximum; inactive = score below 0.9.
Classes used: active, inactive

INSERT INTO results (compound, tested_target, assigned_label) VALUES
  ('O=C1c2ccccc2C(=O)N1SC1CCCCC1', 'X-box-binding protein 1 (Homo sapiens) (UniProt P17861)', 'active'),
  ('CCCC1CCC(=O)O1 (stereo not given)', 'X-box-binding protein 1 (Homo sapiens) (UniProt P17861)', 'inactive'),
  ('CC1CC(OC(=O)c2ccccc2O)CC(C)(C)C1 (stereo not given)', 'X-box-binding protein 1 (Homo sapiens) (UniProt P17861)', 'inactive'),
  ('OCc1cccnc1', 'X-box-binding protein 1 (Homo sapiens) (UniProt P17861)', 'inactive'),
  ('OCCOCCOCCOCCO', 'X-box-binding protein 1 (Homo sapiens) (UniProt P17861)', 'inactive'),
  ('Cc1ccc(C=O)cc1', 'X-box-binding protein 1 (Homo sapiens) (UniProt P17861)', 'inactive'),
  ('C=O', 'X-box-binding protein 1 (Homo sapiens) (UniProt P17861)', 'inactive'),
  ('Cc1ccc(C(=O)c2cc(O)c(O)c([N+](=O)[O-])c2)cc1', 'X-box-binding protein 1 (Homo sapiens) (UniProt P17861)', 'inactive'),
  ('O=C(O)c1cn(-c2ccc(F)cc2)c2cc(N3CCNCC3)c(F)cc2c1=O', 'X-box-binding protein 1 (Homo sapiens) (UniProt P17861)', 'inactive'),
  ('ClCCCl', 'X-box-binding protein 1 (Homo sapiens) (UniProt P17861)', 'inactive'),
  ('CC1CCC(C(C)(C)O)CC1 (stereo not given)', 'X-box-binding protein 1 (Homo sapiens) (UniProt P17861)', 'inactive'),
  ('Nc1cc(N)cc(C(=O)O)c1', 'X-box-binding protein 1 (Homo sapiens) (UniProt P17861)', 'inactive'),
  ('COCCCOc1ccnc(CS(=O)c2nc3ccccc3[nH]2)c1C (stereo not given)', 'X-box-binding protein 1 (Homo sapiens) (UniProt P17861)', 'inactive'),
  ('c1ccc2sc(SN(C3CCCCC3)C3CCCCC3)nc2c1', 'X-box-binding protein 1 (Homo sapiens) (UniProt P17861)', 'inactive'),
  ('COc1ccnc(CS(=O)c2nc3cc(OC(F)F)ccc3[nH]2)c1OC (stereo not given)', 'X-box-binding protein 1 (Homo sapiens) (UniProt P17861)', 'inactive');

The reported numbers originate from PubChem BioAssay (EPA / NIEHS).
